Below: a set of entries, each annotated with reported percent inhibition of viability.
- System: DERL-7 (IL-2 2.5 ng/mL)
- assay protocol: percent inhibition of viability; higher = more inhibition
- test context: 72 h; 1000 nM
Express the result in % but write the number alone.

compound	experimental target	experimental readout	units label	obs value
O=C(O)c1ccc(O)c2ncccc12 [IOX-1] (max concentration tested 100000 nM)	DERL-7 (IL-2 2.5 ng/mL)	percent inhibition of viability	%	1.59

INPUT: State its percent inhibition of viability: CCN1CCN(c2ccc(Nc3cc(N(C)C(=O)Nc4c(Cl)c(OC)cc(OC)c4Cl)ncn3)cc2)CC1 [NVP-BGJ398] (max concentration tested 1000 nM)
OUTPUT: 8.48

INPUT: Assign percent inhibition of viability to the following record: Cc1[nH]c2ccccc2c1CCNCc1ccc(/C=C/C(=O)NO)cc1 [Panobinostat] (max concentration tested 1000 nM)
OUTPUT: 100

INPUT: Recall and state the measured percent inhibition of viability for COC(=O)C[C@](O)(CCCC(C)(C)O)C(=O)O[C@@H]1C(OC)=C[C@]23CCCN2CCc2cc4c(cc2[C@H]13)OCO4 [Omacetaxine] (max concentration tested 10000 nM) .
OUTPUT: 101

---

- System: SNK-6 (IL-2 2.5 ng/mL)
- assay protocol: percent inhibition of viability; higher = more inhibition
- test context: 72 h; 100 nM
percent inhibition of viability: recorded values
The reply should read as a number followed by its unit.

Worked cases, answers included:
compound	obs value
C=CC(=O)Nc1cc2c(Nc3ccc(F)c(Cl)c3)ncnc2cc1OCCCN1CCOCC1 [Canertinib] (max concentration tested 10000 nM)	-15.9%
COc1ncc(-c2ccc3nccc(-c4ccnnc4)c3c2)cc1NS(=O)(=O)c1ccc(F)cc1F [Omipalisib] (max concentration tested 1000 nM)	30.5%
COc1cc([C@@H]2c3cc4c(cc3[C@@H](O[C@@H]3O[C@@H]5CO[C@@H](c6cccs6)O[C@H]5[C@H](O)[C@H]3O)[C@H]3COC(=O)[C@H]23)OCO4)cc(OC)c1O [Teniposide] (max concentration tested 10000 nM)	78.2%

INPUT: Give the value of percent inhibition of viability reported for the following: CC(=O)NCC(=O)N1[C@@H]2CC[C@H]1c1ccc(Nc3ncc(C(F)(F)F)c(NC4CCC4)n3)cc12 (max concentration tested 10000 nM)
OUTPUT: 82.6%

INPUT: Supply measured percent inhibition of viability of CO[C@H]1C[C@@H]2CC[C@@H](C)[C@@](O)(O2)C(=O)C(=O)N2CCCC[C@H]2C(=O)O[C@H]([C@H](C)C[C@@H]2CC[C@@H](OC(=O)C(C)(CO)CO)[C@H](OC)C2)CC(=O)[C@H](C)/C=C(\C)[C@@H](O)[C@@H](OC)C(=O)[C@H](C)C[C@H](C)/C=C/C=C/C=C/1C [Temsirolimus] (max concentration tested 100 nM) in your reply.
OUTPUT: 55.2%

INPUT: Determine its reported percent inhibition of viability: NC(=O)c1ccc(I)c([N+](=O)[O-])c1 [Iniparib] (max concentration tested 10000 nM)
OUTPUT: 11.9%

---

Documented drug sensitivity score across a set of compounds
- Test system: KHYG-1 (IL-2 2.5 ng/mL)
- assay protocol: drug sensitivity score (DSS) (DSS units); higher = more sensitive; extreme values may be limits of the assay
- test context: 72 h

compound	obs value
COC(=O)c1ccc2c(c1)NC(=O)/C2=C(\Nc1ccc(N(C)C(=O)CN2CCN(C)CC2)cc1)c1ccccc1 [Nintedanib] (max concentration tested 10000 nM)	8.76
C=CC[C@@H]1/C=C(\C)C[C@H](C)C[C@H](OC)[C@H]2O[C@@](O)(C(=O)C(=O)N3CCCC[C@H]3C(=O)O[C@H](/C(C)=C/[C@@H]3CC[C@@H](O)[C@H](OC)C3)[C@H](C)[C@@H](O)CC1=O)[C@H](C)C[C@@H]2OC [Tacrolimus] (max concentration tested 10000 nM)	0.17
CCN1CCN(c2ccc(Nc3cc(N(C)C(=O)Nc4c(Cl)c(OC)cc(OC)c4Cl)ncn3)cc2)CC1 [NVP-BGJ398] (max concentration tested 1000 nM)	1.3

Please find the next compound below.
INPUT: Please report drug sensitivity score for the following compound: CCS(=O)(=O)N1CC(CC#N)(n2cc(-c3ncnc4[nH]ccc34)cn2)C1 [Baricitinib] (max concentration tested 2500 nM)
OUTPUT: 23.9

---

This section presents compounds with their documented percent inhibition of viability values.
- Test system: IMC-1 (IL-2 20 ng/mL)
- assay protocol: percent inhibition of viability; higher = more inhibition
- test context: 72 h; 10000 nM
Give just the number in %; leave the unit off.

INPUT: Assign percent inhibition of viability to the following record: CCN(CC)C(=S)SSC(=S)N(CC)CC [Disulfiram] (max concentration tested 100000 nM)
OUTPUT: 44.6

INPUT: Identify measured percent inhibition of viability corresponding to COc1cc([C@@H]2c3cc4c(cc3[C@@H](O[C@@H]3O[C@@H]5CO[C@@H](c6cccs6)O[C@H]5[C@H](O)[C@H]3O)[C@H]3COC(=O)[C@H]23)OCO4)cc(OC)c1O [Teniposide] (max concentration tested 10000 nM)
OUTPUT: 99

INPUT: Entry O=C(O)CC1CC(c2ccccc2)=NO1 (centres undefined) [VGX-1027] (max concentration tested 10000 nM) needs its percent inhibition of viability filled in; supply it.
OUTPUT: 15.5

INPUT: Return reported percent inhibition of viability. Input compound: O=c1cc(N2CCOCC2)oc2c(-c3ccccc3)cccc12 (max concentration tested 100000 nM)
OUTPUT: -5.98

INPUT: Item COc1cc2c(NC3CCN(C(C)C)CC3)nc(C3CCCCC3)nc2cc1OCCCN1CCCC1 [UNC0638] (max concentration tested 10000 nM) : provide percent inhibition of viability
OUTPUT: 100

INPUT: Dear colleague, please send me the reported percent inhibition of viability for CNC(=O)c1ccc(N2C(=S)N(c3ccc(C#N)c(C(F)(F)F)c3)C(=O)C2(C)C)cc1F [Enzalutamide] (max concentration tested 10000 nM) when you can.
OUTPUT: 18.3

---

- Tested on: normal primary NK cells, pool 1 (3 donors) (IL-2 2.5 ng/mL)
- assay protocol: percent inhibition of viability; higher = more inhibition
- test context: 72 h; 10 nM
experimental readout: percent inhibition of viability (%)
# unit: % | format: bare number

Observe how each entry below is paired with its result.
molecule	experimental target	units label	percent inhibition of viability
CS(=O)(=O)CCNCc1ccc(-c2ccc3ncnc(Nc4ccc(OCc5cccc(F)c5)c(Cl)c4)c3c2)o1 [Lapatinib] (max concentration tested 1000 nM)	normal primary NK cells, pool 1 (3 donors) (IL-2 2.5 ng/mL)	%	10.2
C=CC(=O)Nc1cc2c(Nc3ccc(F)c(Cl)c3)ncnc2cc1OCCCN1CCOCC1 [Canertinib] (max concentration tested 10000 nM)	normal primary NK cells, pool 1 (3 donors) (IL-2 2.5 ng/mL)	%	6.82
Cc1[nH]c(/C=C2\C(=O)Nc3ccccc32)c(C)c1CCC(=O)O [Orantinib] (max concentration tested 10000 nM)	normal primary NK cells, pool 1 (3 donors) (IL-2 2.5 ng/mL)	%	9.63
Cn1cc(C2=Nc3cc(NC(=O)C(N)C4CCCCC4)cc4c3C2=CNNC4=O)cn1 (configuration not stated) (max concentration tested 10000 nM)	normal primary NK cells, pool 1 (3 donors) (IL-2 2.5 ng/mL)	%	-6.59

INPUT: Report percent inhibition of viability, nothing else, for this molecule: NC(=O)c1ccc(I)c([N+](=O)[O-])c1 [Iniparib] (max concentration tested 10000 nM)
OUTPUT: 2.74

INPUT: Provide only the value of recorded percent inhibition of viability for C#Cc1cccc(Nc2ncnc3cc4c(cc23)OCCOCCOCCO4)c1 [Icotinib] (max concentration tested 10000 nM)
OUTPUT: -2.92

INPUT: For the molecule CN1CC[C@H](c2c(O)cc(O)c3c(=O)cc(-c4ccccc4Cl)oc23)[C@H](O)C1 [Alvocidib] (max concentration tested 10000 nM) , give its measured percent inhibition of viability value.
OUTPUT: -24.2

---

Documented relative IC50 across a set of compounds
- System: NK-92 (IL-2 2.5 ng/mL)
- assay protocol: relative IC50 (inflection point of fitted viability curve, relative to fitted max inhibition); higher = less sensitive
- test context: 72 h
Dear colleague, please return just the value in µM, with no unit written.

// known answers, use as guide
compound	experimental readout	obs value
COc1ccc(C[C@H](NC(=O)[C@H](C)NC(=O)CN2CCOCC2)C(=O)N[C@@H](Cc2ccccc2)C(=O)C2(C)CO2)cc1 (stereo in doubt) [ONX-0914]	relative IC50	0.0244
COc1cc(Nc2ncc(F)c(Nc3ccc4c(n3)NC(=O)C(C)(C)O4)n2)cc(OC)c1OC [Tamatinib]	relative IC50	2.18
Cc1ccc2nc(CN(CCN(Cc3nc4ccc(C)cc4[nH]3)Cc3nc4ccc(C)cc4[nH]3)Cc3nc4ccc(C)cc4[nH]3)[nH]c2c1	relative IC50	3.9
CC(=O)NCC(=O)N1[C@@H]2CC[C@H]1c1ccc(Nc3ncc(C(F)(F)F)c(NC4CCC4)n3)cc12	relative IC50	0.117
O=C(/C=C/c1cccnc1)NCCCCC1CCN(C(=O)c2ccccc2)CC1 [Daporinad]	relative IC50	0.00607
O=c1[nH]c(=O)n([C@H]2C[C@H](O)[C@@H](CO)O2)cc1F [Floxuridine]	relative IC50	0.0195

INPUT: Note down relative IC50 recorded for CCOc1cc2ncc(C#N)c(Nc3ccc(OCc4ccccn4)c(Cl)c3)c2cc1NC(=O)/C=C/CN(C)C [Neratinib]
OUTPUT: 0.206
